Origin of values: patent US8084467B2

Target: CB1 cannabinoid receptor (Rattus norvegicus)
Construct: membranes were prepared from rat forebrain membranes; from tissue; host or cells: rat forebrain
Sequence (P20272 whole entry): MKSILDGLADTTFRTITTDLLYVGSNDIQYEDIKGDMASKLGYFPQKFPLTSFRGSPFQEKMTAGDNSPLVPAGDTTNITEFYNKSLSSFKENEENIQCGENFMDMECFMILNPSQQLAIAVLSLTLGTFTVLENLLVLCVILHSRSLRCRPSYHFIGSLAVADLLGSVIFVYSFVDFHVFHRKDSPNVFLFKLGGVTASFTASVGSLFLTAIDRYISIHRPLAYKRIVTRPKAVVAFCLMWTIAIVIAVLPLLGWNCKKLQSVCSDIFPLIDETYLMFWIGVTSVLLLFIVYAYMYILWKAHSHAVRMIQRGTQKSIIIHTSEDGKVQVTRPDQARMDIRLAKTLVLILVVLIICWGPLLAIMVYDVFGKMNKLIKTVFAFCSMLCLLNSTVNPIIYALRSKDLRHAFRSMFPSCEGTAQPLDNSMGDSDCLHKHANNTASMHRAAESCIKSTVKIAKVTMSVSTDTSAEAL
Assay: CB1 receptor binding, rat forebrain membranes, [3H] CP-55,940 displacement
Settings: affinities Ki CB1, rat forebrain membranes, 0.8 nM [3H] CP-55,940
Could you please report measured Ki for the items listed next?

## Input Tell me measured Ki for COCc1c(C(=O)N(C)C2CCCCC2)nn(-c2ccc(Cl)cc2Cl)c1-c1ccc(Br)cc1 please.
## Output 273 nM

## Input Please report the measured Ki for CN(C(=O)c1nn(-c2ccc(Cl)cc2Cl)c(-c2ccc(I)cc2)c1CO)C1CCCCC1
## Output 18 nM

## Input Fill in Ki for record COCc1c(C(=O)NN2CCCCC2)nn(-c2ccc(Cl)cc2Cl)c1-c1ccc(Br)cc1
## Output 19 nM

## Input Look up Ki of O=C(NN1CCCCC1)c1nn(-c2ccc(Cl)cc2Cl)c(-c2ccc(Br)cc2)c1CO and report it.
## Output 46 nM

## Input Assign Ki to the following record: Cc1c(C(=O)Nc2ccc3ccccc3c2)nn(CCCCCCl)c1-c1ccccc1
## Output 14.6 nM

* * *

Target: CB2 receptor (Mus musculus)
Construct: membranes were prepared from frozen mouse spleen; from tissue; host or cells: mouse spleen
Sequence (P47936 whole entry): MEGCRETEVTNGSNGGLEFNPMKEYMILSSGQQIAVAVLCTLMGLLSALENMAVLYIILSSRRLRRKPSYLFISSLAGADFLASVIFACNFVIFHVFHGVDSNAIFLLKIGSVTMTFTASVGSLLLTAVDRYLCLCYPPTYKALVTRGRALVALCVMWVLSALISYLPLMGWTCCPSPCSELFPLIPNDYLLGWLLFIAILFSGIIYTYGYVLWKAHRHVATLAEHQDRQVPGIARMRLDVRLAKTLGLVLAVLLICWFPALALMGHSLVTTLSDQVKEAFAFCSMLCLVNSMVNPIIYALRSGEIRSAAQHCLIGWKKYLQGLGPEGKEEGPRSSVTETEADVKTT
Experiment: CB2 receptor binding, mouse spleen membranes, same manner as the CB1 binding assay
Conditions: mouse spleen membranes, [3H] CP-55,940; read-out: affinities Ki CB2
Assignment: determine reported pKi for the given compounds.
pKi is a log-scale quantity: -log10 of the concentration expressed in molar.

## Input GET pKi | system: CB2 receptor (Mus musculus) | item: Cn1nnc(-c2ccc(-c3c(CO)c(C(=O)NN4CCCCC4)nn3-c3ccc(Cl)cc3Cl)cc2)n1
## Output 5.66

## Input Report the value of pKi obtained on CB2 receptor (Mus musculus) for CCOCc1c(C(=O)NN2CCCCC2)nn(-c2ccc(Cl)cc2Cl)c1-c1ccc(Br)cc1 .
## Output 6.31

## Input # return pKi for Cc1c(C(=O)NN2CCCCC2)nn(-c2ccc(Cl)cc2Cl)c1-c1ccc(-c2ccccc2Cl)cc1 , test system: CB2 receptor (Mus musculus)
## Output 5.86

## Input State the measured pKi (CB2 receptor (Mus musculus)) of CN(C(=O)c1nn(-c2ccc(Cl)cc2Cl)c(-c2ccc(-c3cccnc3)cc2)c1CO)C1CCCCC1
## Output 6.12

## Input Fetch value of pKi on CB2 receptor (Mus musculus) for O=C(NC1CCCCC1)c1nn(-c2ccc(Cl)cc2Cl)c(-c2ccc(Br)cc2)c1CBr .
## Output 5.46

## Input Look up and report pKi, with CB2 receptor (Mus musculus) as system, for O=C(Nc1nn(-c2ccc(Cl)cc2Cl)c(-c2ccc(Br)cc2)c1CBr)NC1CCCCC1
## Output 6.87

## Input Report pKi on CB2 receptor (Mus musculus) for this entry: Cc1c(C(=O)NN2CCCCC2)nn(-c2ccc(Cl)cc2Cl)c1-c1ccc(Br)cc1
## Output 6.05

## Input Give pKi; test system CB2 receptor (Mus musculus); compound COCc1c(C(=O)NC2CCCCC2)nn(-c2ccc(Cl)cc2Cl)c1-c1ccc(-c2ccccn2)cc1
## Output 6.56

## Input State recorded pKi with CB2 receptor (Mus musculus), entry Cc1c(NC(=O)NC2CCCCC2)nn(-c2ccc(Cl)cc2Cl)c1-c1ccc(I)cc1 , no comment.
## Output 4.66

## Input State recorded pKi with CB2 receptor (Mus musculus), entry COCOCc1c(C(=O)NC2CCCCC2)nn(-c2ccc(Cl)cc2Cl)c1-c1ccc(Br)cc1 , no comment.
## Output 7.27

## Input Report pKi under test system CB2 receptor (Mus musculus) for Cc1c(NC(=O)NC2CCCCC2)nn(-c2ccc(Cl)cc2Cl)c1-c1ccc(-c2cccnc2)cc1 .
## Output 4.96

## Input // output pKi; input Cn1nnnc1-c1ccc(-c2c(CO)c(C(=O)NN3CCCCC3)nn2-c2ccc(Cl)cc2Cl)cc1 ; system CB2 receptor (Mus musculus)
## Output 5.67

## Input GET pKi | system: CB2 receptor (Mus musculus) | item: CN(C(=O)c1nn(-c2ccc(Cl)cc2Cl)c(-c2ccc(-c3nnnn3C)cc2)c1CO)C1CCCCC1
## Output 5.85

## Input # lookup: CB2 receptor (Mus musculus) pKi, key = O=C(NC1CCCCC1)c1nn(-c2ccc(Cl)cc2Cl)c(-c2ccc(-c3nnn[nH]3)cc2)c1CO
## Output 6.33

## Input Using CB2 receptor (Mus musculus) as the test system, report measured pKi of COCc1c(C(=O)NC2CCCCC2)nn(-c2ccc(Cl)cc2Cl)c1-c1ccc(-c2ccsc2)cc1 .
## Output 6.01
